FYI, the data here is from ChEMBL document CHEMBL3259582.

Target: UniProtKB Q92753
Sequence (Q92753 whole entry): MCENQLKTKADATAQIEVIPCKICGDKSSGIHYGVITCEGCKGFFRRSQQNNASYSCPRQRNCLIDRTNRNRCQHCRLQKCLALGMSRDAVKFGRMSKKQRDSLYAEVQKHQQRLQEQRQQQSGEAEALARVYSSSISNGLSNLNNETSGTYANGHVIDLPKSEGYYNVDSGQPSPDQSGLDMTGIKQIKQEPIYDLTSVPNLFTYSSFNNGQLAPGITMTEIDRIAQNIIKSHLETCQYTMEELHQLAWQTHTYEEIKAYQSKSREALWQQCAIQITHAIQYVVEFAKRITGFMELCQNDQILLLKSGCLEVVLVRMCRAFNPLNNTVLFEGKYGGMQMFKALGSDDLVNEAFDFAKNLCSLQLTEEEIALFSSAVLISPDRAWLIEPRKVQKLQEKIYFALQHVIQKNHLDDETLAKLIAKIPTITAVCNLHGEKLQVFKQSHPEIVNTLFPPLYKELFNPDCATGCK
Test: Inverse agonist activity at human ROR-beta expressed in HEK293 cells after 16 hrs by luciferase reporter gene assay
Assay type: cell-based
Conditions: read-out: IC50
Provide the reported pIC50 of each item.
Numbers only, as −log10 of the molar value.

Before answering, review these 4 worked examples.
Given item CCCCn1c(=O)c2ccccc2c2cc(C(C)(C)C)ccc21 , the value recorded as its pIC50 is 4.89

Given item CCCCn1c(=O)c2ccccc2c2cc(C(O)(C(F)(F)F)C(F)(F)F)c(OC)cc21 , the value recorded as its pIC50 is 4.96

Given item CCCCn1c(=O)c2ccccc2c2cc(C(O)(C(F)(F)F)C(F)(F)F)ccc21 , the value recorded as its pIC50 is 5.19

Given item CCCCn1c(=O)c2cccc(OC)c2c2cc(C(O)(C(F)(F)F)C(F)(F)F)ccc21 , the value recorded as its pIC50 is 5.12

Value sought for every listed compound: pIC50.
1. CCCCn1c(=O)c2ccc(OC)cc2c2cc(C(O)(C(F)(F)F)C(F)(F)F)ccc21
2. CCCCCCn1c(=O)c2ccccc2c2cc(C(O)(C(F)(F)F)C(F)(F)F)ccc21
3. CCCn1c(=O)c2ccccc2c2cc(C(O)(C(F)(F)F)C(F)(F)F)ccc21

OUTPUT:
[5.11, 5.27, 5.09]

###

target: Nuclear receptor ROR-alpha (Homo sapiens); test: Inverse agonist activity at human ROR-alpha1 expressed in HEK293 cells after 16 hrs by luciferase reporter gene assay; assay type: cell-based; details: read-out: IC50
Provide the reported pIC50 of each item.
One number for each entry, as −log10 of the molar value.

Given item CCCn1c(=O)c2ccccc2c2cc(C(O)(C(F)(F)F)C(F)(F)F)ccc21 , the value recorded as its pIC50 is 4.97

Value sought for every listed compound: pIC50.
1. CCCCn1c(=O)c2ccccc2c2cc(CC)ccc21
2. CCCCn1c(=O)c2ccccc2c2cc(C(O)(C(F)(F)F)C(F)(F)F)ccc21
3. CCCCn1c(=O)c2ccccc2c2ccccc21
4. CCCCn1c(=O)c2ccc(OC)cc2c2cc(C(O)(C(F)(F)F)C(F)(F)F)ccc21
5. CCCCn1c(=O)c2cccc(OC)c2c2cc(C(O)(C(F)(F)F)C(F)(F)F)ccc21

OUTPUT:
[5.05, 5.01, 4.99, 5.28, 5.04]

###

Molecular target: UniProt:Q92753
Sequence (Q92753 whole entry): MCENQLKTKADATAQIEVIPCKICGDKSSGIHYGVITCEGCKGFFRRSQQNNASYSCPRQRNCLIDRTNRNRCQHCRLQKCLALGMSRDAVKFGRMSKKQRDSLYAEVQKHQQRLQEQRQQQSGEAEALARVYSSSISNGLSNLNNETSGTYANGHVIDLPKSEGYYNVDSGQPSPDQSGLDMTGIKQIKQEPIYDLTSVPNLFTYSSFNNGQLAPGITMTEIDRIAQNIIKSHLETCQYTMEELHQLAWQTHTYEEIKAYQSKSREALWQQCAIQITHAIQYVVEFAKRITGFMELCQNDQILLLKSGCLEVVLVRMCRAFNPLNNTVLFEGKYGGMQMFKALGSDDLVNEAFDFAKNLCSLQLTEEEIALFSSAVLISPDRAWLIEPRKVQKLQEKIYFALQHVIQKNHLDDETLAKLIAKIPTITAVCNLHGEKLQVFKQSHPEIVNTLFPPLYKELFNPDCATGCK
Test: Inverse agonist activity at human ROR-beta expressed in HEK293 cells after 16 hrs by luciferase reporter gene assay
Format: cell-based
Conditions: read-out: IC50
PROPERTY LABEL: IC50 (µM)
Give bare numbers, in µM.

Value sought for every listed compound: IC50.
1. CCCCn1c(=O)c2ccccc2c2cc(CC)ccc21
2. CCCCn1c(=O)c2ccccc2c2ccccc21
3. CCCCn1c(=O)c2ccccc2c2cc(C)ccc21

OUTPUT:
1: 7.9; 2: 13.4; 3: 17.1

###

Target: Nuclear receptor ROR-gamma (Homo sapiens, UniProt P51449)
Sequence (P51449 whole entry): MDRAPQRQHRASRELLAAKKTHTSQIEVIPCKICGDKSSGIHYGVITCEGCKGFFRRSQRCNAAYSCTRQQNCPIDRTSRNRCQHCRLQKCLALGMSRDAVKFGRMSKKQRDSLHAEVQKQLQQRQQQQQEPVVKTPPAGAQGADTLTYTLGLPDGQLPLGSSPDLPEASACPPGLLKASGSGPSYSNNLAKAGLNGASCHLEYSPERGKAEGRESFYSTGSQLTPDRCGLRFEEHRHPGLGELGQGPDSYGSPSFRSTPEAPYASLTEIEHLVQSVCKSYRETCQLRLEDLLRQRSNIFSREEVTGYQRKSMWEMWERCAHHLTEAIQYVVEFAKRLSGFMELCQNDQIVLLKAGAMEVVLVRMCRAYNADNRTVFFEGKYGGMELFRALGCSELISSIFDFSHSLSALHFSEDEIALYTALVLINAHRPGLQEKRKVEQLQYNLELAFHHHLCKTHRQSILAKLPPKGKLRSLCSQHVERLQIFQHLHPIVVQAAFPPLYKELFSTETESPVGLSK
Assay: Inverse agonist activity at human ROR-gamma1 expressed in HEK293 cells after 16 hrs by luciferase reporter gene assay
Format: cell-based
Conditions: read-out: IC50
PROPERTY LABEL: IC50

Given item CCCCn1c(=O)c2ccccc2c2ccccc21 , the value recorded as its IC50 is 14.5 µM

Given item CCCCn1c(=O)c2ccc(OC)cc2c2cc(C(O)(C(F)(F)F)C(F)(F)F)ccc21 , the value recorded as its IC50 is 1.1 µM

Given item CCCn1c(=O)c2ccccc2c2cc(C(O)(C(F)(F)F)C(F)(F)F)ccc21 , the value recorded as its IC50 is 4.2 µM

Value sought for every listed molecule: IC50.
1. CCn1c(=O)c2ccccc2c2cc(C(O)(C(F)(F)F)C(F)(F)F)ccc21
2. CCCCn1c(=O)c2ccccc2c2cc(C(O)(C(F)(F)F)C(F)(F)F)cc(OC)c21
3. Cn1c(=O)c2ccccc2c2cc(C(O)(C(F)(F)F)C(F)(F)F)ccc21

OUTPUT:
1. > 20 µM
2. > 10 µM
3. > 20 µM

Value sought for every listed molecule: IC50.
1. CCCCCCCCCn1c(=O)c2ccccc2c2cc(C(O)(C(F)(F)F)C(F)(F)F)ccc21
2. CCCCn1c(=O)c2cccc(OC)c2c2cc(C(O)(C(F)(F)F)C(F)(F)F)ccc21
3. CCCCn1c(=O)c2ccccc2c2cc(C)ccc21

OUTPUT:
1. > 20 µM
2. 5.7 µM
3. 16.8 µM

###

biological target: Oxysterols receptor LXR-alpha (Homo sapiens, UniProt Q13133); experiment: Antagonist activity at human LXR-alpha expressed in HEK293 cells assessed as inhibition of T0901317-induced effect after 16 hrs by luciferase reporter gene assay; format: cell-based; settings: read-out: IC50
Sequence (Q13133 whole entry): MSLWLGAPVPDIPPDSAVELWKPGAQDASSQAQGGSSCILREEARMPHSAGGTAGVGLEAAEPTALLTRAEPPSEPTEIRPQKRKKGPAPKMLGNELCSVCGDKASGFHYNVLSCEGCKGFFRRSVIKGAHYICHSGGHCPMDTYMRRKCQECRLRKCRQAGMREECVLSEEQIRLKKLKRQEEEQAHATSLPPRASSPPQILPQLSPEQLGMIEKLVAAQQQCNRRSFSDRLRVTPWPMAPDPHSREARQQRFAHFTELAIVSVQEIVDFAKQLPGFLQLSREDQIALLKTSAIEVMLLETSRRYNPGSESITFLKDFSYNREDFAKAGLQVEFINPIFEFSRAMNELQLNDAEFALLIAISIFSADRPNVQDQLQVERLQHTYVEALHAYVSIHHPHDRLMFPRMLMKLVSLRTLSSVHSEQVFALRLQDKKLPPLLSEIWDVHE
pIC50: −log10 of the molar value.
PROPERTY LABEL: pIC50

For CCCCn1c(=O)c2ccc(Cl)cc2c2cc(C(O)(C(F)(F)F)C(F)(F)F)ccc21 on Oxysterols receptor LXR-alpha (Homo sapiens, UniProt Q13133), measured pIC50 was < 5.52

###

target: Oxysterols receptor LXR-beta (Homo sapiens, UniProt P55055); experiment: Antagonist activity at human LXR-beta expressed in HEK293 cells assessed as inhibition of T0901317-induced effect after 16 hrs by luciferase reporter gene assay; format: cell-based; settings: read-out: IC50
Sequence (P55055 whole entry): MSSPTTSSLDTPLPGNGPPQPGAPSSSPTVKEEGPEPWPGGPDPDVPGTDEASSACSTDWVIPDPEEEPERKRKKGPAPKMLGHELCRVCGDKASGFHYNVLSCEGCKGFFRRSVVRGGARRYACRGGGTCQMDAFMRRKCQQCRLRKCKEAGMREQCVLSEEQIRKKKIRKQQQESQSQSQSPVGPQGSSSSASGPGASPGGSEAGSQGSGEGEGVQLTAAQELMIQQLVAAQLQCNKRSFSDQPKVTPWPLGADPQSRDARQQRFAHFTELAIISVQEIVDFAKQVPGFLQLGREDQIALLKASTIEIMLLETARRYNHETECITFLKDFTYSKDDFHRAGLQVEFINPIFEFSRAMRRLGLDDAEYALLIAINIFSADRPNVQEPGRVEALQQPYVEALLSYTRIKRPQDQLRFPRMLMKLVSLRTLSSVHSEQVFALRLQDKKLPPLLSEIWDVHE
PROPERTY LABEL: IC50

Given item CCCCn1c(=O)c2ccc(Cl)cc2c2cc(C(O)(C(F)(F)F)C(F)(F)F)ccc21 , the value recorded as its IC50 is 680 nM

###

Target: Nuclear receptor ROR-alpha (Homo sapiens, UniProt P35398)
Sequence (P35398 whole entry): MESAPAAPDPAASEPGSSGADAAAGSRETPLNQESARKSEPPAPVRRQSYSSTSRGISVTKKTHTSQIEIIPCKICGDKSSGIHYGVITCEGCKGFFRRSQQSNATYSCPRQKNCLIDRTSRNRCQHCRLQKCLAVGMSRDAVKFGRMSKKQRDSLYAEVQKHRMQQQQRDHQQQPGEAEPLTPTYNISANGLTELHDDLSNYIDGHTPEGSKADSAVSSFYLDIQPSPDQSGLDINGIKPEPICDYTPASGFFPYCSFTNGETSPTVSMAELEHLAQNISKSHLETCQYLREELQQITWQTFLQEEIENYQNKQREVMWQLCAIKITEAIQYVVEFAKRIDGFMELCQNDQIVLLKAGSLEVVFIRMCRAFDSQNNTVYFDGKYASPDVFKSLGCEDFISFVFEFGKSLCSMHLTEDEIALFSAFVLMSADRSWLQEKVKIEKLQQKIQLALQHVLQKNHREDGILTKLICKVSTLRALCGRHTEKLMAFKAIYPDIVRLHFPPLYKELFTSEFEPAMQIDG
Assay: Inverse agonist activity at human ROR-alpha1 expressed in HEK293 cells after 16 hrs by luciferase reporter gene assay
Type: cell-based
Details: read-out: IC50
PROPERTY LABEL: pIC50
Numbers only, as −log10 of the molar value.

Given item CCCCn1c(=O)c2ccccc2c2cc(C)ccc21 , the value recorded as its pIC50 is 4.75

Value sought for every listed compound: pIC50.
1. CCCCCCn1c(=O)c2ccccc2c2cc(C(O)(C(F)(F)F)C(F)(F)F)ccc21
2. CCCCn1c(=O)c2ccccc2c2cc(C(C)(C)C)ccc21
3. CCCCn1c(=O)c2ccccc2c2cc(C(O)(C(F)(F)F)C(F)(F)F)c(OC)cc21

OUTPUT:
[5.12, 4.93, 5.11]
